FYI, the data here is from ChEMBL document CHEMBL1201862.

System: NCI-H460
Experiment: NCI tumour cell line growth inhibition, 48 h
Active and inactive are the calls of the source. No stated cut-off is given here; in the data, active = GI50 up to about 1.1 µM and inactive = higher.
Measured GI50 of individual entries
attribute-measured: GI50

[[record]]
molecule = "Cc1cccc(NC(=O)CCl)c1"
attribute_measured = "GI50"
value_observed = "> 10 µM (inactive)"

[[record]]
molecule = "CCO/C=C/C(C)C1(C(=O)OCC)CCCCC1=O (stereo not drawn)"
attribute_measured = "GI50"
value_observed = "> 100 µM (inactive)"

[[record]]
molecule = "CN(C)c1ccc(/C=C/c2cc[n+](C)c3ccccc23)cc1"
attribute_measured = "GI50"
value_observed = "2.9 µM (inactive)"


---

Tested on: A498
Experiment: NCI tumour cell line growth inhibition, 48 h
The source made the active and inactive calls. No stated cut-off is given here; in the data, active = GI50 up to about 1.1 µM and inactive = higher. Residues, ends and D or L forms follow the SMILES beside them. *: point of attachment. Boc = CC(C)(C)OC(=O)*; OBn = c1ccc(CO*)cc1
Labels: active, inactive

[[record]]
molecule = "Cc1cccc2c1c(=O)c1c(O)cc3c(c1n2C)C=CC(C)(C)O3"
cat = "inactive"

[[record]]
molecule = "O=S(=O)(c1ccc(NC(=S)N/N=C/c2ccccc2O)cc1)N1CCCCC1"
cat = "active"

[[record]]
molecule = "CCOc1ccc(C(CN2CCOCC2)C(C)=O)cc1OC (stereo not drawn)"
cat = "inactive"

[[record]]
molecule = "CCOP(=O)(C/C(O)=C1\\C(=O)C(CCCNC(=O)OC(C)(C)C)N(Cc2ccc(OC)c(OC)c2)C1=O)OCC (stereo not drawn)"
cat = "inactive"

[[record]]
molecule = "C=C1C[C@@H]2C[C@@H](C)CC(O)[C@]2(CCCN)C1O (stereo partly drawn)"
cat = "inactive"

[[record]]
molecule = "C=CC[C@@H](N)C(=O)N(C)[C@@H](C)[C@@H](O)c1ccccc1"
cat = "inactive"

[[record]]
molecule = "CN(N=O)C(=O)Nc1ccc(C(=O)O)cc1"
cat = "inactive"

[[record]]
molecule = "Cc1ccc(S(=O)(=O)c2ccsc2NC(=O)c2ccccc2)cc1"
cat = "inactive"

[[record]]
molecule = "COc1cc(C2c3cc4c(cc3OC(O)C2C)OCO4)cc(OC)c1O (stereo not drawn)"
cat = "inactive"

[[record]]
molecule = "CCCCCCCCCCCNC=O"
cat = "inactive"

[[record]]
molecule = "C[C@H]1CN[C@@H]2[C@@H](C)[C@H]3[C@@H](C[C@H]4[C@@H]5CC[C@H]6C[C@@H](N)CC[C@]6(C)[C@H]5CC[C@]34C)O[C@@]2(O)C1"
cat = "active"

[[record]]
molecule = "CC(C)C(NC(=O)CNC(=O)C1CCCN1C(=O)C(NC(=O)OC(C)(C)C)C(C)C)C(=O)NCC(=O)OCc1ccccc1 (stereo not drawn) (Boc-VPGVG-OBn; configuration not given here)"
cat = "inactive"

[[record]]
molecule = "Oc1ccc2c3c1OC1C(=NN=C4CCC5(O)C6Cc7ccc(O)c8c7C5(CCN6CC5CC5)C4O8)CCC4(O)C(C2)N(CC2CC2)CCC314 (stereo not drawn)"
cat = "inactive"

[[record]]
molecule = "COCn1cnc2c(=O)n(-c3ccc(C)cc3)c(=S)n(-c3ccc(C)cc3)c21"
cat = "inactive"

[[record]]
molecule = "NC1=NN(c2ccccc2)C(=O)C1C(=O)C(=O)Nc1nccs1 (stereo not drawn)"
cat = "inactive"

[[record]]
molecule = "CC1=NN(C(=O)Cc2ccccc2)C(=O)/C1=C\\c1ccccc1O"
cat = "inactive"

[[record]]
molecule = "CCc1n[nH]c(=O)n1N1C(=O)C2CCCCC2C1=O (stereo not drawn)"
cat = "inactive"

[[record]]
molecule = "CC(C)=CCC/C(C)=C/CCC1(C)C=Cc2c(c3ccccc3oc2=O)O1 (stereo not drawn)"
cat = "inactive"

